# Tested on: SW-620 colon
# assay-text: NCI-60 one-dose screen, 48 h (100 = growth as untreated, 0 = no growth, -100 = all killed)
# condition-summary: 10 µM unless noted
This is part of a sample that, as a whole, favours compounds with a hit. Of some 83,000 tested, about 20% had one in any assay.
Could you label it criterion met if measured growth is 90% or higher, and criterion not met otherwise?

{"molecule": "Cc1cc(=O)n2nc(-c3c[nH]c4ccccc34)sc2n1", "tested-target": "SW-620 colon", "discrete-label": "criterion met"}
{"molecule": "Cc1ccc(/C=C/CC(=O)Nc2ccc(C(=O)Nc3ccc(F)cc3N)nc2)cn1", "tested-target": "SW-620 colon", "discrete-label": "criterion not met"}
{"molecule": "Nc1c(C(=O)c2ccccc2)sc2nc(-c3cnccn3)cc(-c3cccs3)c12", "tested-target": "SW-620 colon", "discrete-label": "criterion met"}
{"molecule": "O=C(c1cccc(F)c1)n1ccc2cc(NC(=S)Nc3cccnc3)ccc21", "tested-target": "SW-620 colon", "discrete-label": "criterion met"}
{"molecule": "O=S(=O)(Nc1ccc(I)c(Cl)c1)c1ccc(-c2cnc(C3CC3)o2)cc1", "tested-target": "SW-620 colon", "discrete-label": "criterion not met"}
{"molecule": "CNC(=O)c1cc(Oc2ccc3nc(NC(=O)c4ccc(CN5CCN(C)CC5)c(C(F)(F)F)c4)sc3c2)ccn1", "tested-target": "SW-620 colon", "discrete-label": "criterion not met"}
{"molecule": "COc1ccc(/C=N/Nc2nc(Nc3ccccc3)nc(Nc3ccc(S(N)(=O)=O)cc3)n2)cc1", "tested-target": "SW-620 colon", "discrete-label": "criterion not met"}
{"molecule": "C/C(=C(/c1ccc(O)cc1)c1ccc(OCCN2CCCC2)cc1)c1ccc(Cl)cc1", "tested-target": "SW-620 colon", "discrete-label": "criterion not met"}
{"molecule": "CC(C)c1nn(-c2ccccc2)c(N2CCCCC2)c1/C=N/NC(N)=S", "tested-target": "SW-620 colon", "discrete-label": "criterion met"}
{"molecule": "C#C[C@]1(O)CC[C@H]2[C@@H]3CC=C4c5sc(Nc6cc(Cl)ccn6)nc5CC[C@]4(C)[C@H]3CC[C@@]21C", "tested-target": "SW-620 colon", "discrete-label": "criterion not met"}
{"molecule": "CCOC(=O)c1nn(-c2ccccc2)c(=O)c2c(N)c(C#N)c(-c3cccs3)cc12", "tested-target": "SW-620 colon", "discrete-label": "criterion not met"}
{"molecule": "COc1cc(/C=N/n2cnc3oc(-c4ccccc4)cc3c2=N)cc(CN2CCOCC2)c1O", "tested-target": "SW-620 colon", "discrete-label": "criterion not met"}
{"molecule": "COc1ccc(-c2cc(-c3cccc4ccccc34)n3c(n2)nc2ccccc23)cc1", "tested-target": "SW-620 colon", "discrete-label": "criterion not met"}
{"molecule": "COc1ccc(-c2ccc3c4c(cccc24)C(=O)N(N2C(=O)c4cccc5cccc(c45)C2=O)C3=O)cc1", "tested-target": "SW-620 colon", "discrete-label": "criterion met"}
{"molecule": "COc1cccc(/C=C/C(=O)c2ccc(NC(=O)COc3cccc4cccnc34)cc2)c1", "tested-target": "SW-620 colon", "discrete-label": "criterion met"}
{"molecule": "C#C[C@]1(O)CC[C@H]2[C@@H]3CC=C4c5sc(Nc6nc(C)cc(OC)n6)nc5CC[C@]4(C)[C@H]3CC[C@@]21C", "tested-target": "SW-620 colon", "discrete-label": "criterion not met"}
{"molecule": "Oc1ccc(CSc2nnc(-c3ccc(Cl)cc3)o2)c2cccnc12", "tested-target": "SW-620 colon", "discrete-label": "criterion not met"}
{"molecule": "O=C(CCCCCCN1CC(=O)N2[C@@H](c3cccc(Cl)c3)c3[nH]c4ccccc4c3C[C@H]2C1=O)NO", "tested-target": "SW-620 colon", "discrete-label": "criterion not met"}
{"molecule": "O=C(COc1ccc(C2SCC(=O)N2c2ccc(F)cc2)cc1)c1ccccc1 (configuration not stated)", "tested-target": "SW-620 colon", "discrete-label": "criterion met"}
{"molecule": "Cc1ccc(-c2nnc3sc(C4=Cc5ccccc5OC=C4)nn23)cc1", "tested-target": "SW-620 colon", "discrete-label": "criterion met"}
{"molecule": "O=C1CC2(CCOCC2)Oc2ncccc21", "tested-target": "SW-620 colon", "discrete-label": "criterion not met"}
{"molecule": "Oc1ccc(CSc2nnc(-c3ccncc3)n2-c2ccccc2)c2cccnc12", "tested-target": "SW-620 colon", "discrete-label": "criterion not met"}
{"molecule": "Cc1ccc(NC(=O)N[C@@H](Cc2cc(F)cc(F)c2)C(=O)NC2C(=O)N3CCC[C@H]3C(=O)N3CCCC[C@H]3C(=O)N[C@@H](C)C(=O)N3C[C@H](C)C[C@H]3C(=O)O[C@H]2C)c(F)c1 (some centres not stated)", "tested-target": "SW-620 colon", "discrete-label": "criterion not met"}
{"molecule": "N#C/C(=C\\c1ccc(-c2ccc(F)cc2)o1)C(=O)Nc1ncc(Cc2ccc(Cl)cc2Cl)s1", "tested-target": "SW-620 colon", "discrete-label": "criterion not met"}
{"molecule": "O=[N+]([O-])c1ccc(-c2nnc(SCc3ccc(O)c4ncccc34)n2-c2ccccc2)cc1", "tested-target": "SW-620 colon", "discrete-label": "criterion not met"}
{"molecule": "COc1ccc(NC(=O)Cn2cc(CN3C(=O)c4ccc([N+](=O)[O-])cc4C3=O)nn2)cc1", "tested-target": "SW-620 colon", "discrete-label": "criterion met"}
{"molecule": "O=S(=O)(Nc1ccc(-n2cnc3cc(-c4ccc(O)cc4)ccc32)cc1)C1CC1", "tested-target": "SW-620 colon", "discrete-label": "criterion met"}
{"molecule": "C=C1C(=O)O[C@@H]2/C=C(/C)C3=CC(=O)[C@@](C)(C[C@H](OC(=O)/C(C)=C\\C)[C@@H]12)O3", "tested-target": "SW-620 colon", "discrete-label": "criterion not met"}
{"molecule": "C#C[C@]1(O)CC[C@H]2[C@@H]3CC=C4c5sc(-c6ccc(OC)cc6)nc5CC[C@]4(C)[C@H]3CC[C@@]21C", "tested-target": "SW-620 colon", "discrete-label": "criterion not met"}
{"molecule": "CCNC(=O)Oc1ccc(/C(=C(/C)c2ccccc2)c2ccc(OCCN3CCCC3)cc2)cc1", "tested-target": "SW-620 colon", "discrete-label": "criterion not met"}
{"molecule": "CCOC(=O)c1c(NC(=O)c2ccc(C(C)(C)C)cc2)sc2cc(OCCN3CCCCC3)ccc12", "tested-target": "SW-620 colon", "discrete-label": "criterion not met"}
{"molecule": "CC1CCc2c(sc3nc(SCC(=O)N/N=C/c4ccc(Cl)cc4)n(-c4ccccc4)c(=O)c23)C1 (configuration not stated)", "tested-target": "SW-620 colon", "discrete-label": "criterion met"}
{"molecule": "O=C(NNc1nc2cc(F)c(F)cc2n2cccc12)c1ncccn1", "tested-target": "SW-620 colon", "discrete-label": "criterion not met"}
{"molecule": "C#CCOc1ccccc1C(Nc1ccccc1)c1nnnn1C1CCCCC1 (configuration not stated)", "tested-target": "SW-620 colon", "discrete-label": "criterion met"}
{"molecule": "CCn1c2ccc(/C=N/OCCCN(C)C)cc2c2cc(/C=N/OCCCN(C)C)ccc21", "tested-target": "SW-620 colon", "discrete-label": "criterion not met"}
{"molecule": "COc1ccc([C@H]2[C@H](O)C(=O)N2c2cc(OC)c(OC)c(OC)c2)cc1Cl", "tested-target": "SW-620 colon", "discrete-label": "criterion not met"}
{"molecule": "COc1cc([C@H]2OC[C@H]3[C@@H]2CO[C@@H]3c2ccc(O)c(OC)c2)ccc1O", "tested-target": "SW-620 colon", "discrete-label": "criterion met"}

---

# Tested on: NCI-H226 lung
# assay-text: NCI-60 one-dose screen, 48 h
# condition-summary: 10 µM unless noted
This is part of a sample that, as a whole, favours compounds with a hit. Of some 83,000 tested, about 20% had one in any assay. Active and inactive are the calls of the source. How the source made its calls: active means growth percent below 10; inactive means the rest.
Labels: 1 (yes) = active, 0 (no) = inactive

{"compound": "CCc1ccc(NC(=O)N[C@@H](Cc2cccc(F)c2)C(=O)N[C@@H]2C(=O)N3CCC[C@H]3C(=O)N3CCCC[C@H]3C(=O)N[C@@H](C)C(=O)N3C[C@H](C)C[C@H]3C(=O)O[C@H]2C)c(F)c1", "discrete-label": "1 (yes)"}
{"compound": "O=C(Nc1cc(Cl)cc(Cl)c1)Nc1ccc2oc(=O)ccc2c1", "discrete-label": "0 (no)"}
{"compound": "CCN(CC)Cc1c(-c2cccc(OC(F)(F)F)c2)[nH]c2ccc(N3CCCC3)cc2c1=O", "discrete-label": "0 (no)"}
{"compound": "COc1c([C@@H](CC(C)C)OC(C)=O)ccc2c1C(=O)OCc1cc(C)cc(O)c1O2", "discrete-label": "0 (no)"}
{"compound": "O=c1[nH]c(CCl)nc2c1cnn2-c1ccccc1", "discrete-label": "0 (no)"}
{"compound": "C=C(C)[C@@H]1CC[C@]2(C)[C@H](CC=C3[C@@H]4CC(C)(C)CC[C@]4(C(=O)NCC#CCN4CCN(C)CC4)CC[C@]32C)[C@@]1(C)CCC#N", "discrete-label": "0 (no)"}
{"compound": "C(=C(\\C1=NCCN1)n1cnc2ccccc21)/c1ccc2ccccc2c1", "discrete-label": "0 (no)"}
{"compound": "C/C(Cc1ccc(Cl)cc1)=C(/c1ccccc1)c1ccc(OCCN)cc1", "discrete-label": "0 (no)"}
{"compound": "CCOC(=O)c1c(NC(=O)c2cccc(C(F)(F)F)c2)sc2c(CN3CCN(C)CC3)c(O)ccc12", "discrete-label": "0 (no)"}
{"compound": "O=C(NCCNc1cc(-c2cn(-c3ccccc3)nc2-c2cccc(O)c2)ccn1)Nc1ccc(Cl)c(C(F)(F)F)c1", "discrete-label": "0 (no)"}
{"compound": "O=C(NNc1nc2cc(F)cc(F)c2n2cccc12)c1ncccn1", "discrete-label": "1 (yes)"}
{"compound": "CC(C)N=C(N/C(N)=N/c1nc2ccccc2s1)NC(C)C", "discrete-label": "0 (no)"}
{"compound": "CCC(=O)Nc1ccc(-c2nc(-c3cccc(O)c3)c(-c3ccnc(Br)c3)[nH]2)cc1", "discrete-label": "0 (no)"}
{"compound": "O=[N+]([O-])c1ccc(-c2nnc(SCc3ccc(O)c4ncccc34)n2-c2ccccc2)cc1", "discrete-label": "0 (no)"}
{"compound": "C#CCOc1ccc(C(Nc2ccc(OC)cc2)c2nnnn2C2CCCCC2)cc1 (centres undefined)", "discrete-label": "0 (no)"}
{"compound": "COc1ccc(Cn2cc3c(c2-c2ccccc2)CCCc2cnoc2-3)cc1", "discrete-label": "0 (no)"}
{"compound": "Cc1cc(Cl)cc(NS(=O)(=O)c2ccc(-c3cnc(C4CC4)o3)cc2)c1", "discrete-label": "0 (no)"}
{"compound": "COc1ccc(CCN2C(=O)CSC2=S)cc1OC", "discrete-label": "0 (no)"}
{"compound": "O=C(NNc1nc2cc(F)c(F)cc2n2cccc12)c1ncccn1", "discrete-label": "0 (no)"}
